Where do the numbers come from? From patent US20250034269A1.

- test-target: human LTBR on cells (human, UniProt P36941 31-435)
- assay-method-text: cell-based or functional assay
measurement-name: NFκB luc, 234.4 ng/ml, w/o x linker (RLU)
Unit RLU implied. Number only.

Problem: For the binder shown here, P1AE1873 (CBE11) (antibody, human IgG1, kappa, L234A L235A, V domains shown) VH: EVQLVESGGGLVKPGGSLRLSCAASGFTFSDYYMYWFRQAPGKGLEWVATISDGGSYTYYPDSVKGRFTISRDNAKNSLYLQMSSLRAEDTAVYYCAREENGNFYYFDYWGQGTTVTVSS VL: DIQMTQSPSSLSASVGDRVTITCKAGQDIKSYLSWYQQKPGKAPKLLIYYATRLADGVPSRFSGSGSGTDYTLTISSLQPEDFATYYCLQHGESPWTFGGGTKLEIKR , give the reported NFκB luc, 234.4 ng/ml, w/o x linker.
Result: 29000
